Catalogue of compounds with associated TGI
tested on: HCT-15 colon; experiment: NCI tumour cell line growth inhibition, 48 h

// worked examples, TGI included
INSERT INTO assay_data (smiles_entry, reported_measurement) VALUES
  ('Oc1ccccc1C=Nc1nc(OCc2ccccc2)nc2[nH]ncc12', '> 100 µM'),
  ('S=c1[nH]n2c(COc3cc(Cl)c(OCc4nnc5sc(=S)[nH]n45)cc3Cl)nnc2s1', '> 100 µM'),
  ('C=CCNC1=C2C[C@@H](C)C[C@@H](OC)[C@H](OC(=O)CCN(C)C)[C@H](C)/C=C(\C)[C@@H](OC(N)=O)[C@H](OC)/C=C\C=C(/C)C(=O)NC(=CC1=O)C2=O', '19.9 µM');

# input for lookup
Name the recorded TGI of the item COc1cc(/C=C2\C(=O)N(C)c3ccccc32)cc(OC)c1OC in your answer.
85.5 µM

----------
tested on: NCI-H23 lung; assay: NCI tumour cell line growth inhibition, 48 h; in the data active = GI50 below about 0.43 µM; inactive = the rest
Response enum: active, inactive

Example entries and their recorded answers appear below.
INSERT INTO measurements (compound, study_system, class_label) VALUES
  ('COc1ccc(/C=C/C(C)=N/OCC(=O)Nc2ccc(Cl)cc2)cc1', 'NCI-H23 lung', 'inactive'),
  ('COc1ccc(-c2cc(-c3ccccc3)nc(NCCNc3ccnc4cc(Cl)ccc34)n2)cc1', 'NCI-H23 lung', 'inactive'),
  ('O=C(c1ccccc1)C(Br)C(Br)c1ccccc1 (stereo not given)', 'NCI-H23 lung', 'inactive'),
  ('CCOc1ccc(Nc2nc(-c3c(C)nc4ncccn34)cs2)cc1', 'NCI-H23 lung', 'active');

In the following, a different compound is considered.
Test call for this compound, please: C=CCN=C(N/N=C/c1ccc([N+](=O)[O-])o1)NS(=O)(=O)c1cc(C(=O)Nc2ccccc2)c(Cl)cc1SCC(N)=O
inactive

----------
system: RXF 393 renal; assay: NCI tumour cell line growth inhibition, 48 h
Examples of compounds with documented TGI follow.

Below, each entry is followed by its recorded TGI result.
INSERT INTO results (compound, readout_label, reported_measurement) VALUES
  ('CCN(CC)CCOc1ccc2c(C)c(C(=O)OC)oc2c1C(=O)/C=C/c1ccc(OC)cc1', 'TGI', '31.3 µM'),
  ('CC1CC(C)C(C(O)CC2CC(=O)N(c3ccccc3)C(=O)C2)C(O)C1 (centres undefined)', 'TGI', '> 100 µM'),
  ('COc1ccc(/C=N/NC(=S)Nc2cc(C)ccc2OC)cc1', 'TGI', '> 100 µM'),
  ('O=C(c1ccccc1)c1cc(Cl)ccc1NCn1nnc2ccccc21', 'TGI', '> 100 µM'),
  ('CC(C)=CCCC1(C)C2COC(=O)C21 (centres undefined)', 'TGI', '> 100 µM');

# input for lookup
For the compound CNCc1cccc2c1OCCOCCOCCC(C)S(=O)(=O)c1ccc(cc1)-c1cnc(N)c(n1)C(=O)N2 (centres undefined) , report TGI.
1.6 µM

----------
Below is a list of entries, each paired with its recorded TGI value.
test system: SF-539 CNS; experiment: NCI tumour cell line growth inhibition, 48 h

// solved cases for TGI follow
INSERT INTO results (compound, reported_measurement) VALUES
  ('Cc1cc(Nc2ccc(Cl)cc2)nc(NCCCNc2ccnc3cc(Cl)ccc23)n1', '3.13 µM'),
  ('CC(=O)OCC1OC(n2c(=S)n(-c3ccccc3)c(=O)c3cc(Br)cc(Br)c32)C(OC(C)=O)C(OC(C)=O)C1OC(C)=O (centres undefined)', '> 100 µM'),
  ('O=C1C2CC[C@@H]3C(=O)C(Cl)(Cl)[C@@H]3CCC2C1(Cl)Cl (some centres undefined)', '> 90.5 µM'),
  ('Clc1ccc(C2=NCON=C2c2ccc(Cl)cc2)cc1', '35.5 µM'),
  ('Oc1ccccc1C=Nc1nc(OCc2ccccc2)nc2[nH]ncc12', '43 µM'),
  ('CNCc1cccc2c1OCCOCCOCCC(C)S(=O)(=O)c1ccc(cc1)-c1cnc(N)c(n1)C(=O)N2 (centres undefined)', '2.56 µM'),
  ('CCCCCCCCCCCCOC1C(C(CC(=O)N2CCN(Cc3ccc4c(c3)OCO4)CC2)NS(=O)(=O)c2cc(Cl)cc(Cl)c2)OC2OC(C)(C)OC21 (centres undefined)', '> 100 µM'),
  ('COc1cccc(CCCNC(=O)Cc2ccccc2CO)c1', '> 100 µM');

Let's switch to this compound now.
Give the reported value of TGI for this record: CC1(Cl)CC(C)(/C=C/Cl)C(Cl)CC1Cl (centres undefined)
34.4 µM
